pIC50: −log10 of the molar value.
Assay read-out pIC50 on Potassium-transporting ATPase (Sus scrofa, UniProt P19156); records merged from the literature.
So basically: pIC50 at 5 or higher? That is Satisfied. Lower than 5? That is Not satisfied.

[[record]]
compound = "Cc1nc2c(/C=C/Cc3ccccc3)cccn2c1CC#N"
grouplabel = "Not satisfied"

[[record]]
compound = "CN(C)c1ccccc1C[S+]([O-])c1nccn1-c1ccc(N)cn1 (configuration not stated)"
grouplabel = "Satisfied"

[[record]]
compound = "COc1ccnc(-n2ccnc2[S+]([O-])Cc2ccccc2N(C)C)c1 (configuration not stated)"
grouplabel = "Satisfied"

[[record]]
compound = "CN(C)c1ccccc1C[S+]([O-])c1nccn1-c1ccccc1 (configuration not stated)"
grouplabel = "Not satisfied"

[[record]]
compound = "Nc1ccccc1C[S+]([O-])c1nccn1-c1ccccn1 (configuration not stated)"
grouplabel = "Not satisfied"


Challenge: Identify whether the reported pIC50 of the following compound is 5 or greater: CN(C)c1ccccc1C[S+]([O-])c1nccn1-c1ncccc1O (configuration not stated)
Response given: Satisfied

Challenge: Identify whether the reported pIC50 of the following compound is 5 or greater: Cc1ccc(-n2ccnc2[S+]([O-])Cc2ccccc2N(C)C)nc1 (configuration not stated)
Response given: Not satisfied

Challenge: Identify whether the reported pIC50 of the following compound is 5 or greater: Cc1ccnc(-n2ccnc2[S+]([O-])Cc2ccccc2N(C)C)c1 (configuration not stated)
Response given: Satisfied

Challenge: Identify whether the reported pIC50 of the following compound is 5 or greater: Cc1cccnc1-n1ccnc1[S+]([O-])Cc1ccccc1N (configuration not stated)
Response given: Not satisfied

Challenge: Identify whether the reported pIC50 of the following compound is 5 or greater: Cc1cnc(C(CO)Cc2cccc3ccccc23)cc1OC1CCCCC1 (configuration not stated)
Response given: Satisfied

Challenge: Identify whether the reported pIC50 of the following compound is 5 or greater: COc1cc(C)nc(-n2ccnc2[S+]([O-])Cc2ccccc2N(C)C)c1 (configuration not stated)
Response given: Satisfied

Challenge: Identify whether the reported pIC50 of the following compound is 5 or greater: CCOc1ccc(C[S+]([O-])c2ncccc2C(=O)Nc2ccncc2)c(OCC)c1 (configuration not stated)
Response given: Not satisfied

Challenge: Identify whether the reported pIC50 of the following compound is 5 or greater: COc1cccnc1-n1ccnc1[S+]([O-])Cc1ccccc1N(C)C (configuration not stated)
Response given: Not satisfied

Challenge: Identify whether the reported pIC50 of the following compound is 5 or greater: Cc1nc2c(CCc3ccccc3)cccn2c1N
Response given: Satisfied
